Origin of the recorded values: patent US3947411A

- System: Staphylococcus aureus
- test-name: Agar well inhibition zone test against bacteria, Staphylococcus aureus (Table III)
- details: quantity per well giving inhibition zone (500, 50, 5 μg tested); nutrient agar, 37°, 24 hours
measurement-label: Inhibition Area at μg, Staph. aureus

[[record]]
compound = "CN1CCN(CCCCCCN2CCN(CCC(O)(Cc3ccccc3)Cc3ccccc3)CC2)CC1"
reported = "> 500 µg"

[[record]]
compound = "CC(N1CCN(CCO)CC1)C(O)(Cc1ccccc1)Cc1ccccc1 (stereo not drawn)"
reported = "500 µg"

[[record]]
compound = "CC(C(=Cc1ccccc1)Cc1ccccc1)N1CCN(CCN2CCN(CCc3ccccc3)CC2)CC1 (stereo not drawn)"
reported = "5 µg"

[[record]]
compound = "CC(N1CCN(Cc2ccccn2)CC1)C(O)(Cc1ccccc1)Cc1ccccc1 (stereo not drawn)"
reported = "50 µg"

[[record]]
compound = "CC(C(=Cc1ccc(Cl)cc1)Cc1ccc(Cl)cc1)N1CCN(CCN2CCN(C)CC2)CC1 (stereo not drawn)"
reported = "5 µg"

[[record]]
compound = "CNCCCCCCN1CCN(C(C)C(=Cc2ccccc2)Cc2ccccc2)CC1 (stereo not drawn)"
reported = "50 µg"

[[record]]
compound = "CCCCCCCCNCCCCCCN1CCN(C(C)C(=Cc2ccccc2)Cc2ccccc2)CC1 (stereo not drawn)"
reported = "5 µg"

[[record]]
compound = "CCN(CC)CCN1CCN(C(C)C(=Cc2ccccc2)Cc2ccccc2)CC1 (stereo not drawn)"
reported = "50 µg"

[[record]]
compound = "CC(C(=Cc1ccccc1Cl)Cc1ccccc1Cl)N1CCN(CCN2CCN(C)CC2)CC1 (stereo not drawn)"
reported = "5 µg"

[[record]]
compound = "CC1CCCCN1CCN1CCN(C(C)C(=Cc2ccccc2)Cc2ccccc2)CC1 (stereo not drawn)"
reported = "50 µg"

[[record]]
compound = "CC(C(=Cc1ccccc1)Cc1ccccc1)N1CCN(CCN2CCCCC2)CC1 (stereo not drawn)"
reported = "50 µg"

[[record]]
compound = "CCC(N1CCN(C)CC1)C(O)(Cc1ccccc1)Cc1ccccc1 (stereo not drawn)"
reported = "50 µg"

[[record]]
compound = "OC(CCN1CCN(c2ccccc2)CC1)(Cc1ccccc1)Cc1ccccc1"
reported = "> 500 µg"

[[record]]
compound = "CN1CCN(CCC(O)(Cc2ccccc2)Cc2ccccc2)CC1"
reported = "500 µg"

[[record]]
compound = "CC(N1CCN(Cc2ccccc2)CC1)C(O)(Cc1ccccc1)Cc1ccccc1 (stereo not drawn)"
reported = "> 500 µg"

[[record]]
compound = "CC(N1CCN(c2ccccc2)CC1)C(O)(Cc1ccccc1)Cc1ccccc1 (stereo not drawn)"
reported = "> 500 µg"

[[record]]
compound = "CC(N1CCN(CCN2CCN(Cc3ccccc3)CC2)CC1)C(O)(Cc1ccccc1)Cc1ccccc1 (stereo not drawn)"
reported = "50 µg"

[[record]]
compound = "CC(N1CCN(CCCl)CC1)C(O)(Cc1ccccc1)Cc1ccccc1 (stereo not drawn)"
reported = "50 µg"

[[record]]
compound = "CC(N1CCN(C)CC1)C(O)(Cc1ccccc1)Cc1ccccc1 (stereo not drawn)"
reported = "500 µg"

[[record]]
compound = "CC(N1CCN(CCCN2CCCCC2)CC1)C(O)(Cc1ccccc1)Cc1ccccc1 (stereo not drawn)"
reported = "500 µg"

[[record]]
compound = "CC(N1CCNCC1)C(O)(Cc1ccccc1)Cc1ccccc1 (stereo not drawn)"
reported = "500 µg"

[[record]]
compound = "CC(N1CCN(CCN2CCN(C)CC2)CC1)C(O)(Cc1ccccc1)Cc1ccccc1 (stereo not drawn)"
reported = "500 µg"

[[record]]
compound = "CCCCCCCCN1CCN(CCCCCCN2CCN(C(C)C(=Cc3ccccc3)Cc3ccccc3)CC2)CC1 (stereo not drawn)"
reported = "5 µg"

[[record]]
compound = "CC(N1CCN(CCN(Cc2ccccc2)Cc2ccccc2)CC1)C(O)(Cc1ccccc1)Cc1ccccc1 (stereo not drawn)"
reported = "> 500 µg"

[[record]]
compound = "CC1CCCCN1CCN1CCN(C(C)C(O)(Cc2ccccc2)Cc2ccccc2)CC1 (stereo not drawn)"
reported = "500 µg"

[[record]]
compound = "CC(N1CCN(Cc2ccncc2)CC1)C(O)(Cc1ccccc1)Cc1ccccc1 (stereo not drawn)"
reported = "> 500 µg"

[[record]]
compound = "CC(C(=Cc1ccccc1)Cc1ccccc1)N1CCN(CCN2CCN(C)CC2)CC1 (stereo not drawn)"
reported = "500 µg"

[[record]]
compound = "CC(N1CCN(Cc2cccnc2)CC1)C(O)(Cc1ccccc1)Cc1ccccc1 (stereo not drawn)"
reported = "500 µg"

[[record]]
compound = "CC(C(=Cc1ccccc1)Cc1ccccc1)N1CCN(CCN2CCOCC2)CC1 (stereo not drawn)"
reported = "50 µg"

[[record]]
compound = "CC1CN(CCN2CCN(C(C)C(=Cc3ccccc3)Cc3ccccc3)CC2)CCO1 (stereo not drawn)"
reported = "50 µg"

[[record]]
compound = "CCCCCCCC[N+](C)(C)CCN1CCN(C(C)C(=Cc2ccccc2)Cc2ccccc2)CC1 (stereo not drawn)"
reported = "5 µg"

[[record]]
compound = "CC(C(=Cc1ccccc1)Cc1ccccc1)N1CC[N+]2(CCCCCC2)CC1 (stereo not drawn)"
reported = "50 µg"

[[record]]
compound = "Cc1cccc(CC(O)(Cc2cccc(C)c2)C(C)N2CCN(CCN3CCCCC3)CC2)c1 (stereo not drawn)"
reported = "5 µg"

[[record]]
compound = "CC(N1CCN(CCCCCCN2CCCCC2)CC1)C(O)(Cc1ccccc1)Cc1ccccc1 (stereo not drawn)"
reported = "50 µg"

[[record]]
compound = "OC(Cc1ccccc1)(Cc1ccccc1)CN1CCN(CCN2CCCCC2)CC1"
reported = "50 µg"

[[record]]
compound = "Cc1cccc(CN2CCN(C(C)C(O)(Cc3ccccc3)Cc3ccccc3)CC2)c1 (stereo not drawn)"
reported = "> 500 µg"

[[record]]
compound = "CC(N1CCN(C)CC1)C(O)(Cc1ccc(Cl)cc1)Cc1ccc(Cl)cc1 (stereo not drawn)"
reported = "50 µg"

[[record]]
compound = "CC(N1CCN(CCN2CCOCC2)CC1)C(O)(Cc1ccccc1)Cc1ccccc1 (stereo not drawn)"
reported = "50 µg"

[[record]]
compound = "C(=C(CCN1CCN(CCN2CCCCC2)CC1)Cc1ccccc1)c1ccccc1"
reported = "5 µg"


----------
- System: E. coli
- test-name: Minimum inhibitory concentration for bacteria, tube dilution, E. coli (Table V)
- Assay type: cell-based
- details: Escherichia coli, 48 h, read-out: Minimum Inhibitory Concentration, E. coli
# MIC per entry
measurement-label: MIC (µg/mL)

[[record]]
molecule = "CC(N1CCN(CCN(C)Cc2ccccc2)CC1)C(O)(Cc1ccccc1)Cc1ccccc1 (centres unmarked)"
measurement_label = "MIC"
relation_sign = ">"
reported = 1020

[[record]]
molecule = "C(=C(CCN1CCN(CCN2CCCCC2)CC1)Cc1ccccc1)c1ccccc1"
measurement_label = "MIC"
relation_sign = "="
reported = 256

[[record]]
molecule = "CC(C(=Cc1ccccc1)Cc1ccccc1)N1CCN(CCN2CCN(CCc3ccccc3)CC2)CC1 (centres unmarked)"
measurement_label = "MIC"
relation_sign = ">"
reported = 1020

[[record]]
molecule = "CCCCCCCCNCCCCCCN1CCN(C(C)C(=Cc2ccccc2)Cc2ccccc2)CC1 (centres unmarked)"
measurement_label = "MIC"
relation_sign = "="
reported = 32

[[record]]
molecule = "CC(C(=Cc1ccc(Cl)cc1)Cc1ccc(Cl)cc1)N1CCN(CCN2CCN(C)CC2)CC1 (centres unmarked)"
measurement_label = "MIC"
relation_sign = "="
reported = 32

[[record]]
molecule = "CC(N1CCN(C)CC1)C(O)(Cc1ccc(Cl)cc1)Cc1ccc(Cl)cc1 (centres unmarked)"
measurement_label = "MIC"
relation_sign = ">"
reported = 1020

[[record]]
molecule = "CC(C(=Cc1ccccc1Cl)Cc1ccccc1Cl)N1CCN(CCN2CCN(C)CC2)CC1 (centres unmarked)"
measurement_label = "MIC"
relation_sign = "="
reported = 128

[[record]]
molecule = "CNCCN1CCN(C(C)C(=Cc2ccccc2)Cc2ccccc2)CC1 (centres unmarked)"
measurement_label = "MIC"
relation_sign = "="
reported = 64


----------
- System: E. coli
- test-name: Minimum inhibitory concentration for bacteria, tube dilution, E. coli (Table V)
- Format: cell-based
- details: Escherichia coli, 48 h, read-out: Minimum Inhibitory Concentration, E. coli
Field 'label' (enum: rule met / rule not met). Set to rule met when MIC is strictly under 100 µg/mL; else rule not met.

[[record]]
molecule = "Clc1ccc(C=C(CCN2CCN(CCN3CCCCC3)CC2)Cc2ccc(Cl)cc2)cc1"
answer_label = "rule met"

[[record]]
molecule = "CCCCCCCCN1CCN(CCCCCCN2CCN(C(C)C(=Cc3ccccc3)Cc3ccccc3)CC2)CC1 (centres unmarked)"
answer_label = "rule not met"

[[record]]
molecule = "CNCCCCCCN1CCN(C(C)C(=Cc2ccccc2)Cc2ccccc2)CC1 (centres unmarked)"
answer_label = "rule met"

[[record]]
molecule = "CC(C(=Cc1ccccc1)Cc1ccccc1)N1CCN(CCN(C)C)CC1 (centres unmarked)"
answer_label = "rule not met"

[[record]]
molecule = "CCCCCCCC[N+](C)(C)CCN1CCN(C(C)C(=Cc2ccccc2)Cc2ccccc2)CC1 (centres unmarked)"
answer_label = "rule met"

